Hi there, I'd appreciate the recorded Population Mitotic Cells (%) for every entry that follows.
Tested on: U2OS
Experiment: Multiplex assay against U2OS
Format: toxicity, cell-based
Conditions: human, 12 h, 1 µM, compound concentration 1 uM, replicate 1

Using the record for Cc1ccccc1C(=O)Nc1ccc(C(=O)N2CCCC(N(C)C)c3ccccc32)cc1.Cl (stereo not given) , report its Population Mitotic Cells (%). 8%

Using the record for `COc1c(C)cc(NC(=O)c2nn(Cc3ccc(F)cc3)c3c2CN(C(=O)c2ccc[nH]2)C[C@]3(C)C(N)=O)cc1C` , report its Population Mitotic Cells (%). 34%

Using the record for `CC(C)(C)c1ccc(S(=O)(=O)Nc2ccc(Cl)cc2C(=O)c2cc[n+]([O-])cc2)cc1` , report its Population Mitotic Cells (%). 22%

Using the record for `CSCC[C@H](NC=O)C(=O)N[C@@H](CC(C)C)C(=O)N[C@@H](Cc1ccccc1)C(=O)O` , report its Population Mitotic Cells (%). 26%

Using the record for O=S(=O)(c1ccccc1)c1cnc2c(N3CCNCC3)cccc2c1 [INTEPIRDINE] , report its Population Mitotic Cells (%). 23%

Using the record for `O=C(NCC(=O)N1CC[C@H](N[C@H]2CC[C@@](O)(c3ccc(-c4ncccn4)cn3)CC2)C1)c1cccc(C(F)(F)F)c1` , report its Population Mitotic Cells (%). 20%

Using the record for `CC(=O)NCCc1c(Cc2ccccc2)[nH]c2ccccc12` , report its Population Mitotic Cells (%). 27%

Using the record for `O=C(NCCO)c1cccc(-c2cc(Nc3ccc(OC(F)(F)F)cc3)ncn2)c1` , report its Population Mitotic Cells (%). 35%

Using the record for `Cc1ccc(-c2ccc(F)cc2COc2ccc(CCC(=O)O)cc2)cc1` , report its Population Mitotic Cells (%). 25%

Using the record for `C[C@H]1[C@H]2CC[C@H]3[C@@H]4CC=C5C[C@@H](N(C)C)CC[C@]5(C)[C@H]4CC[C@]23CN1C` , report its Population Mitotic Cells (%). 20%

Using the record for `O=C(O)Cc1ccccc1Nc1c(Cl)cccc1Cl` , report its Population Mitotic Cells (%). 10%

Using the record for `CC1(COc2ccc3c(c2)ncn3-c2ccc3cccc(N4CCC(N)CC4)c3n2)COC1` , report its Population Mitotic Cells (%). 41%

Using the record for `CC[C@H]1OC(=O)[C@H](C)[C@@H](O[C@H]2C[C@@](C)(OC)[C@@H](O)[C@H](C)O2)[C@H](C)[C@@H](O[C@@H]2O[C@H](C)C[C@H](N(C)C)[C@H]2O)[C@@]2(C)CC(C)=C(O2)[C@H](C)[C@@H](O)[C@]1(C)O` , report its Population Mitotic Cells (%). 50%

Using the record for `CN(C)CCCc1cc(C(=O)Nc2ccc(-c3ccncc3)cc2)ccc1O.Cl.Cl` , report its Population Mitotic Cells (%). 10%

Using the record for `CCOc1c2c(c(OCC)c3ncccc13)CN(c1ccc(CS(=O)(=O)NC(=O)Cc3ccccc3OC)cc1C)C2=O` , report its Population Mitotic Cells (%). 35%

Using the record for `CCCC(CCC)C(=O)O` , report its Population Mitotic Cells (%). 27%

Using the record for CCCN1CCC[C@@H]2Cc3n[nH]cc3C[C@H]21.Cl [QUINPIROLE HYDROCHLORIDE] , report its Population Mitotic Cells (%). 28%

Using the record for `Cc1ccc(/C(=C\CN2CCCC2)c2ccccn2)cc1` , report its Population Mitotic Cells (%). 15%

Using the record for `O=C1COc2nccc(-c3ccccc3F)c2CN1Cc1cc(C(F)(F)F)cc(C(F)(F)F)c1` , report its Population Mitotic Cells (%). 47%

Using the record for `c1cc(OCCCN2CCCCC2)ccc1CN1CCCCC1` , report its Population Mitotic Cells (%). 23%

----------
Hi there, I'd appreciate the recorded Total Cell Count for every entry that follows.
System: HEK-293T
Test: Multiplex assay against HEK293T
Type: toxicity, cell-based
Conditions: human, 48 h, 1 µM, compound concentration 1 uM, replicate 1
Keep the answer to the number alone.

Give the reported Total Cell Count for `O=C(NCCO)c1cccc(-c2cc(Nc3ccc(OC(F)(F)F)cc3)ncn2)c1` (system: HEK-293T). 897

Give the reported Total Cell Count for CN1CCN2c3ncccc3Cc3ccccc3C2C1 (centres undefined) (system: HEK-293T). 885

Give the reported Total Cell Count for `CN1CCN(c2nc3cc(C(F)(F)F)ccc3n3cccc23)CC1.O=C(O)/C=C\C(=O)O.O=C(O)/C=C\C(=O)O` (system: HEK-293T). 915

Give the reported Total Cell Count for `COc1c(C)cc(NC(=O)c2nn(Cc3ccc(F)cc3)c3c2CN(C(=O)c2ccc[nH]2)C[C@]3(C)C(N)=O)cc1C` (system: HEK-293T). 920

----------
System: HEK-293T
Assay: Multiplex assay against HEK293T
Type: toxicity, cell-based
Settings: human, 48 h, 1 µM, compound concentration 1 uM, replicate 2
Mark criterion met for reported Population Tubulin-Different-Phenotype (%) of 10% or greater; mark criterion not met for anything smaller.

Check the entry `CN(C)c1ccnc2sc3c(=O)n(N4CCCCCC4)cnc3c12` : does Population Tubulin-Different-Phenotype (%) equal or exceed 10%? criterion met

Check the entry O=S(=O)(c1ccccc1)c1cnc2c(N3CCNCC3)cccc2c1 [INTEPIRDINE] : does Population Tubulin-Different-Phenotype (%) equal or exceed 10%? criterion met

Check the entry COc1ccc2c(c1)C(C(=O)N(Cc1ccc(N(C)C)cc1)c1ccc(C(C)C)cc1)CCC2.Cl (stereo not given) : does Population Tubulin-Different-Phenotype (%) equal or exceed 10%? criterion met

Check the entry `Cc1ccc(F)cc1C(=O)Nc1ccc(C(=O)N2Cc3cccn3Cc3ccccc32)c(Cl)c1` : does Population Tubulin-Different-Phenotype (%) equal or exceed 10%? criterion met

Check the entry `N#Cc1c(N)nc(SCc2csc(-c3ccc(Cl)cc3)n2)c(C#N)c1-c1ccc(OCCO)cc1` : does Population Tubulin-Different-Phenotype (%) equal or exceed 10%? criterion met

Check the entry `C[C@@H]1C[C@H]2[C@@H]3CCC4=CC(=O)C=C[C@]4(C)[C@@]3(F)[C@@H](O)C[C@]2(C)[C@@]1(O)C(=O)CO` : does Population Tubulin-Different-Phenotype (%) equal or exceed 10%? criterion met

Check the entry Cc1ccc(C(C)(O)c2nc3ccccc3s2)c(C)c1 (stereo not given) : does Population Tubulin-Different-Phenotype (%) equal or exceed 10%? criterion met

Check the entry `COc1cc(C(=O)N(CCCc2ccccc2)Cc2ccc(CC(=O)O)cc2)cc(OC)c1C` : does Population Tubulin-Different-Phenotype (%) equal or exceed 10%? criterion not met

Check the entry `C[C@H]1[C@H]2CC[C@H]3[C@@H]4CC=C5C[C@@H](N(C)C)CC[C@]5(C)[C@H]4CC[C@]23CN1C` : does Population Tubulin-Different-Phenotype (%) equal or exceed 10%? criterion met

Check the entry `CCOc1c2c(c(OCC)c3ncccc13)CN(c1ccc(CS(=O)(=O)NC(=O)Cc3ccccc3OC)cc1C)C2=O` : does Population Tubulin-Different-Phenotype (%) equal or exceed 10%? criterion not met

----------
Hi there, I'd appreciate the recorded Population Membrane Permeable-Phenotype (%) for every entry that follows.
System: Fibroblast
Experiment: Multiplex assay against human fibroblast
Assay type: toxicity, cell-based
Settings: 12 h, 10 µM, compound concentration 10 uM, replicate 1
Please reply with the bare figure in % and do not write the unit itself.

Using the record for `O=C(NCCO)c1cccc(-c2cc(Nc3ccc(OC(F)(F)F)cc3)ncn2)c1` , report its Population Membrane Permeable-Phenotype (%). 0

Using the record for `C[C@@H]1C[C@H]2[C@@H]3CCC4=CC(=O)C=C[C@]4(C)[C@@]3(F)[C@@H](O)C[C@]2(C)[C@@]1(O)C(=O)CO` , report its Population Membrane Permeable-Phenotype (%). 1

Using the record for `CC(C)(C)c1ccc(S(=O)(=O)Nc2ccc(Cl)cc2C(=O)c2cc[n+]([O-])cc2)cc1` , report its Population Membrane Permeable-Phenotype (%). 3

----------
System: HEK-293T
Assay: Multiplex assay against HEK293T
Type: toxicity, cell-based
Conditions: human, 12 h, 10 µM, compound concentration 10 uM, replicate 2
Hi there, I'd appreciate the recorded Population Mitotic Cells (%) for every entry that follows.
# include the unit after the value

Using the record for `CN(C)CCCc1cc(C(=O)Nc2ccc(-c3ccncc3)cc2)ccc1O.Cl.Cl` , report its Population Mitotic Cells (%). 39%

Using the record for `C[C@H](NC(=O)c1c(C(F)F)nn(C)c1Oc1cccc(C(F)(F)F)c1)c1ccc(C(=O)O)cc1` , report its Population Mitotic Cells (%). 40%

Using the record for `COc1c(C)cc(NC(=O)c2nn(Cc3ccc(F)cc3)c3c2CN(C(=O)c2ccc[nH]2)C[C@]3(C)C(N)=O)cc1C` , report its Population Mitotic Cells (%). 40%

----------
Hi there, I'd appreciate the recorded Population Hoechst High Intensity Objects (%) for every entry that follows.
Tested on: U2OS
Experiment: Multiplex assay against U2OS
Format: toxicity, cell-based
Details: human, 24 h, 10 µM, compound concentration 10 uM, replicate 1
# include the unit after the value

Using the record for `CCOc1c2c(c(OCC)c3ncccc13)CN(c1ccc(CS(=O)(=O)NC(=O)Cc3ccccc3OC)cc1C)C2=O` , report its Population Hoechst High Intensity Objects (%). 3%

Using the record for `CC[C@H]1OC(=O)[C@H](C)[C@@H](O[C@H]2C[C@@](C)(OC)[C@@H](O)[C@H](C)O2)[C@H](C)[C@@H](O[C@@H]2O[C@H](C)C[C@H](N(C)C)[C@H]2O)[C@@]2(C)CC(C)=C(O2)[C@H](C)[C@@H](O)[C@]1(C)O` , report its Population Hoechst High Intensity Objects (%). 5%

Using the record for `N[C@@]1(C(=O)O)CO[C@H]2[C@H](C(=O)O)[C@H]21` , report its Population Hoechst High Intensity Objects (%). 1%

Using the record for CSc1ccccc1N1CCN(CCCCCC(=O)NC2CCCc3ccccc32)CC1.Cl (centres undefined) , report its Population Hoechst High Intensity Objects (%). 6%
